test: Growth inhibition of human H9 cells at 30 uM; assay type: cell-based; details: read-out: GI
ASSAY_READOUT: inhibition at 30 µM (%)

COMPOUND_STRING: O=C1OC[C@H]2O[C@@H](O)[C@H](O)[C@@H](O)[C@@H]2OC(=O)c2cc(O)c(O)c(O)c2-c2c(O)c(O)c3oc(=O)c4c(c(O)c(O)c5oc(=O)c2c3c54)-c2c1cc(O)c(O)c2O
QUANTITY_UNIT: %
REPORTED_RESULT: 15
